Quick reference for TGI among some compounds
System: SK-OV-3 ovarian
Experiment: NCI tumour cell line growth inhibition, 48 h

# compound, TGI
measured = [
    ("COc1cc(OC)cc(-c2nc3ccccc3c(=O)[nH]2)c1", "62.8 µM"),
    ("O=C1CSC(c2cc3cc(Br)ccc3nc2Cl)N1c1ccc(F)c(Cl)c1 (centres undefined)", "> 50 µM"),
    ("CC1[C@@H]2C[C@@H]3O[C@@]34[C@H]3CCC5Cc6nc7c(nc6C[C@@]5(C)C3(O)CC(=O)[C@@]24CO[C@]12OC(C)(C)CC2O)CC1CC[C@@H]2C3=C[C@H]4O[C@@]5(O[C@@](C)(CO)C[C@@H]5O)C(C)[C@@]4(O)[C@]3(C)[C@@H](O)CC2[C@]1(C)C7 (some centres undefined)", "0.231 µM"),
    ("CC(NC1=NCCO1)c1ccco1 (centres undefined)", "> 100 µM"),
    ("CC(=O)N1C(=O)/C(=C\\C(=O)c2ccc(Cl)cc2)c2ccccc21", "59.9 µM"),
    ("CC(C)(C)C1=CC(O)(c2c3ccccc3c(C3(O)C=C(C(C)(C)C)C(=O)C(C(C)(C)C)=C3)c3ccccc23)C=C(C(C)(C)C)C1=O", "> 100 µM"),
    ("O=C(O)c1ccccc1/C=C1/Nc2ccccc2C1=O", "> 100 µM"),
    ("COC(=O)C12CC(NC(=O)c3csc([C@@H](C[C@H](C(C)C)N(C)C(=O)[C@@H](NC(=O)[C@H]4CCCCN4C)C(C)C)OC(C)=O)n3)(C1)C2", "> 33.3 µM"),
    ("Oc1cccc(-c2cn3cc(Cl)ccc3n2)c1", "> 100 µM"),
    ("CCc1cc2c(c3[nH]ccc13)[C@@H](C)C[C@H]2C", "54.9 µM"),
    ("O=C1c2ccccc2-c2c1c1ccccc1c(=O)n2CCCNCCO", "14.4 µM"),
    ("Cc1cccc2c1C(=O)OC2(c1cccc2ccccc12)c1cccc2ccccc12", "> 100 µM"),
    ("CC1CC2OC(=N)C1(C#N)C2(C#N)C#N (centres undefined)", "> 100 µM"),
    ("Cn1cc(C2=C(c3cccc(Cl)c3)C(=O)NC2=O)c2ccccc21", "> 25 µM"),
    ("COC(=O)CCCCCCCCC(=O)c1c(C)[nH]c(/C=C2\\N=C(c3ccc[nH]3)C=C2OC)c1C", "> 100 µM"),
    ("COc1nc2ncc([C@@H](O)[C@H](O)CO)nc2c(=O)[nH]1", "> 100 µM"),
    ("CN1C(=O)[C@](C)(Cc2ccc(F)cc2)N(C(=O)OC(C)(C)C)[C@@H]1C(C)(C)C", "> 100 µM"),
    ("CCN(CC)Cc1cc(Nc2c3ccc(Cl)cc3nc3c(C)cccc23)ccc1O", "3.33 µM"),
    ("CCOC(=O)CCC(NC(=O)c1ccc(Nc2nc3cc(N)cc(N)c3nc2-c2ccccc2)cc1)C(=O)OCC (centres undefined)", "47.7 µM"),
    ("CCCCOc1nc2ccccc2cc1C1CNC(=O)c2ccccc2N1 (centres undefined)", "13.3 µM"),
    ("c1ccc(-c2nn(-c3ccccc3)[n+](-c3ccccc3-c3ccccc3)n2)cc1", "> 29.1 µM"),
    ("O=C(/C=C(/C=C/c1csc2ccccc12)OB(F)F)/C=C/c1csc2ccccc12", "> 50 µM"),
    ("CO[C@H]1/C=C/C=C/C=C/C[C@H](OC(=O)[C@@H](C)NC(=O)C2CCCCC2)[C@H](C)[C@@H](O)/C(C)=C\\CCC2=CC(=O)C=C(NC(=O)C1)C2=O", "1.83 µM"),
    ("CC1CN=C(N(C(=O)Nc2ccccc2)C2CCCCC2)S1 (centres undefined)", "> 100 µM"),
]
